Measured values drawn from patent US20240197726A1 for this set.

GI50 values by entry
- System: HCT-15 colorectal cancer cells
- Experimental details: antitumor activity, sulforhodamine B cell growth assay, HCT-15
- Assay type: cell-based
- Condition description: HCT-15, drug exposure 48 hours; read-out: GI50 value: 50% growth inhibitory concentration
Provide the reading as a plain figure in nM.

Recorded GI50, per entry:
C=C1/C=C/CN[C@@H](C)C(=O)NCC2c3c(c(c(C)c4c3OCO4)OC1)C[C@H]1[C@H]3c4c(cc(C)c(OC)c4O)C[C@@H]([C@H](C#N)N21)N3C :: 400
COC1=C(C)C(=O)C2=C(C1=O)[C@H](CNC(=O)[C@H](C)N)N1C(C2)[C@H]2c3c(cc(C)c(OC)c3O)C[C@@H]([C@@H]1C#N)N2C (stereo partly shown) [Cyanosafracin B, reference compound] :: 390
COc1c(C)cc2c(c1O)C1C3Cc4c5c(C)c6c(c4C(CNC(=O)C(C)NCC=CCO5)N3C(C#N)C(C2)N1C)OCO6 (stereo not shown) :: 47

Noted for COc1c(C)cc2c(c1O)C1C3Cc4c5c(C)c6c(c4C(CNC(=O)C(C)NC(=O)OCC4C=C(CO5)CC5C(=O)N(c7ccccc7)C(=O)C45)N3C(C#N)C(C2)N1C)OCO6 (stereo not shown) : its GI50 reads 630
